These data points were gathered from patent US20080050810A1.

Biological target: anti-CC49 variable region antibodies in the serum of patient six
Assay: HPLC, 125I-HuCC49 + serum + 5 Tg competitor; fewer complexes = competitor bound
// values below are reported percent of complexes

Binder: HuCC49 CDR variant L-1,2 (antibody, V domains shown) VH: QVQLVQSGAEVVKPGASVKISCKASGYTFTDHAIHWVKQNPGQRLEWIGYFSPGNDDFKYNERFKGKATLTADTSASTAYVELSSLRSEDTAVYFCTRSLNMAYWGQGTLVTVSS VL: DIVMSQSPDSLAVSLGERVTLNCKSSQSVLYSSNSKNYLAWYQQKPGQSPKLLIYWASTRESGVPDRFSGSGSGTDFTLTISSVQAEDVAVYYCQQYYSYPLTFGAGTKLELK
percent of complexes / %: 15.7
--
Binder: HuCC49 CDR variant H-3 (antibody, V domains shown) VH: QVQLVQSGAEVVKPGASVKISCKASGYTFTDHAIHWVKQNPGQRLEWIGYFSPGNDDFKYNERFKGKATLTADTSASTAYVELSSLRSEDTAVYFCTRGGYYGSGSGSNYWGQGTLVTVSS VL: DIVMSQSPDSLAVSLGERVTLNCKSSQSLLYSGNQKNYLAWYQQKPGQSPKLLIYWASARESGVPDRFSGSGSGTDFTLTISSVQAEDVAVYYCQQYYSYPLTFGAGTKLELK
percent of complexes / %: 6.7
--
Binder: HuCC49 CDR variant L-2 (antibody, V domains shown) VH: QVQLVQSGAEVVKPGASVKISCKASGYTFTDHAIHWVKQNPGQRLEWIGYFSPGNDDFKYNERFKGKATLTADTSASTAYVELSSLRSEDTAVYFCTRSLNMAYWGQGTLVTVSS VL: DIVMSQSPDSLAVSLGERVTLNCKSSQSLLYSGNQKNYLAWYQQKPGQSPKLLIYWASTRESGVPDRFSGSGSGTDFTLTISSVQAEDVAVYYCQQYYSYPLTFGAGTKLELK
percent of complexes / %: 3
